- Assay target: BCRP (Homo sapiens)
- Sequence (Q9UNQ0 1-655): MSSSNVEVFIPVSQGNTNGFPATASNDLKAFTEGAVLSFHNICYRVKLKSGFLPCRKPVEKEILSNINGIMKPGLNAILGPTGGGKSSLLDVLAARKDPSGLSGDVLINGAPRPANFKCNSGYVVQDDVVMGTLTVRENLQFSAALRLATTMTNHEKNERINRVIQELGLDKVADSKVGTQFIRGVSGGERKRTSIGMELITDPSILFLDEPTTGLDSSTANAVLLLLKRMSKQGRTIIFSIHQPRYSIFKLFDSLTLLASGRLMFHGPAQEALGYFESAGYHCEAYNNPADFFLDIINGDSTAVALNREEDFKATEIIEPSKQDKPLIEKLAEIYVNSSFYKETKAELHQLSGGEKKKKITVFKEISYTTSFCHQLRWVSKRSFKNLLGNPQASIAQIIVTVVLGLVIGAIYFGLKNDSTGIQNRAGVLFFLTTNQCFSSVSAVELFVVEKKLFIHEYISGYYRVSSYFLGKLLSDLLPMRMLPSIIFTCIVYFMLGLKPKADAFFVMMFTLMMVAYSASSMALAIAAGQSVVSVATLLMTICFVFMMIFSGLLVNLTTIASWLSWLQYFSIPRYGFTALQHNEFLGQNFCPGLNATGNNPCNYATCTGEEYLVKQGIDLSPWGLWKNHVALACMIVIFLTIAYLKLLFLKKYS
- Assay info: Topotecan accumulation by flow microfluorimetry in MDA-MB-231/BCRP cells
Readout type: EC50

Item under review: `CS(=O)(=O)CCNCc1ccc(-c2ccc3ncnc(Nc4ccc(OCc5cccc(F)c5)c(Cl)c4)c3c2)o1` . Reported EC50?
250 nM

----------
- Assay info: Phase I trial: plasma pharmacokinetics of topotecan and lapatinib
- Test conditions: human, plasma, intravenous, Topotecan t1/2, lapatinib + topotecan (day 8), geometric mean and 95% CI
Readout type: half-life (h)
Please reply with the bare figure in h and do not write the unit itself.

Item under review: CC[C@@]1(O)C(=O)OCc2c1cc1n(c2=O)Cc2cc3c(CN(C)C)c(O)ccc3nc2-1 [topotecan] . Reported half-life?
4.35

----------
- Assay info: Phase I trial: plasma pharmacokinetics of topotecan and lapatinib
- Test conditions: human, plasma, intravenous, Topotecan t1/2, topotecan alone (day 1), geometric mean and 95% CI
Readout type: half-life

Item under review: CC[C@@]1(O)C(=O)OCc2c1cc1n(c2=O)Cc2cc3c(CN(C)C)c(O)ccc3nc2-1 [topotecan] . Reported half-life?
4.3 h

----------
- Assay info: Phase I trial: plasma pharmacokinetics of topotecan and lapatinib
- Test conditions: human, plasma, intravenous, Topotecan Cmax, lapatinib + topotecan (day 8), n = 9, geometric mean and 95% CI
Readout type: Cmax (ng/mL)
Please reply with the bare figure in ng/mL and do not write the unit itself.

Item under review: CC[C@@]1(O)C(=O)OCc2c1cc1n(c2=O)Cc2cc3c(CN(C)C)c(O)ccc3nc2-1 [topotecan] . Reported Cmax?
128

----------
- Assay info: Phase I trial: plasma pharmacokinetics of topotecan and lapatinib
- Test conditions: human, plasma, intravenous, Topotecan AUC0–24 h, topotecan alone (day 1), n = 9, geometric mean and 95% CI
Readout type: AUC(0-t) (ng·h/mL)
Please reply with the bare figure in ng·h/mL and do not write the unit itself.

Item under review: `CC[C@@]1(O)C(=O)OCc2c1cc1n(c2=O)Cc2cc3c(CN(C)C)c(O)ccc3nc2-1` . Reported AUC(0-t)?
432

FYI, the data here is from paper PMC2725396.
